Consider the following compounds; for each one, report its GI50.
# Assay Info: Cytotoxicity against mouse SMA cells assessed as growth inhibition measured after 72 hrs by MTT assay
// return numeric value only (unit: µM, not printed)

query: Give GI50 for `N#C/C(=C\c1ccc(Cl)cc1)C(=O)c1ccc[nH]1`
result: 38

query: Please list GI50 recorded for the compound `N#C/C(=C\c1ccc([N+](=O)[O-])cc1)C(=O)c1c[nH]c2ccccc12`
result: 60

query: Return the recorded GI50 value; entry: `N#C/C(=C\c1ccccc1)C(=O)NCc1ccc(Cl)c(Cl)c1`
result: 43

query: Report GI50 for `COc1ccc(CNC(=O)/C(C#N)=C/c2ccco2)cc1`
result: 33

query: # return recorded GI50 for entry `N#C/C(=C\c1c(F)c(F)c(F)c(F)c1F)C(=O)c1c[nH]c2ccccc12`
result: 20

----------
# Test system: MCF7
# Assay Info: Cytotoxicity against human MCF7 cells assessed as growth inhibition measured after 72 hrs by MTT assay
# Assay type: functional
# Applied Conditions: MCF7, 72 h
Readout Type: log10 GI50 (log10 of the value in µM)
Reminder: these figures are log10 of reported GI50, in µM before transformation.

query: State its log10 GI50: `COc1ccc(CNC(=O)/C(C#N)=C/c2cccc3ccccc23)cc1`
result: 1.20

query: Give log10 GI50 for `N#C/C(=C\c1ccc[nH]1)C(=O)NCc1ccc(Cl)c(Cl)c1`
result: 0.78

query: Return the recorded log10 GI50 value; entry: `COc1ccc(CNC(=O)/C(C#N)=C/c2cc(Br)co2)cc1`
result: 1.30

query: Please indicate log10 GI50 recorded for `COc1ccc(CNC(=O)/C(C#N)=C/c2ccccc2)cc1`
result: 1.26

query: Indicate the recorded log10 GI50 value for this compound: `COc1ccc(CNC(=O)/C(C#N)=C/c2ccc[nH]2)cc1`
result: 1.53

query: Input `N#C/C(=C\c1ccc([N+](=O)[O-])cc1)C(=O)c1c[nH]c2ccccc12` , output reported log10 GI50.
result: 1.54

query: Name the recorded log10 GI50 of the compound listed here: `COc1ccc(CNC(=O)/C(C#N)=C/c2ccco2)cc1`
result: 1.43

query: Provide one value: measured log10 GI50 of `COc1ccc(CNC(=O)/C(C#N)=C/c2ccc(-c3ccccc3)o2)cc1`
result: 0.48

query: Assign log10 GI50 to the following record: `COc1ccc(CNC(=O)/C(C#N)=C/c2ccc(C)cc2)cc1`
result: 1.56

query: Give the value of log10 GI50 reported for the following: `N#C/C(=C\c1c(F)c(F)c(F)c(F)c1F)C(=O)c1c[nH]c2ccccc12`
result: 1.11

query: For `COc1ccc(CNC(=O)/C(C#N)=C/c2ccc(Br)o2)cc1` , write its log10 GI50.
result: 1.04

query: Name the recorded log10 GI50 of the compound listed here: `N#C/C(=C\c1ccc(Cl)cc1)C(=O)NCc1ccc(Cl)c(Cl)c1`
result: 1.32

query: Look up and report measured log10 GI50 for this entry: `COc1ccc(CNC(=O)/C(C#N)=C/c2ccc(Cl)o2)cc1`
result: 0.95

query: Fill in reported log10 GI50 for this entry: `N#C/C(=C\c1cccc2ccccc12)C(=O)NCc1ccc(Cl)c(Cl)c1`
result: 0.90

query: Output measured log10 GI50 for this item: `COc1ccc(CNC(=O)/C(C#N)=C/c2ccc3ccccc3c2)cc1`
result: 1.52

query: // Input: `COc1ccc(CNC(=O)/C(C#N)=C/c2ccc(Cl)cc2)cc1` . Output its log10 GI50 only.
result: 1.04

query: Answer with the recorded log10 GI50 for the compound listed here: `N#C/C(=C\c1c[nH]c2ccccc12)C(=O)c1c[nH]c2ccccc12`
result: 1.04

query: Identify the reported log10 GI50 for the following entry. `COc1ccc(CNC(=O)/C(C#N)=C/c2ccc(C)o2)cc1`
result: 1.32

query: Using the record for `N#C/C(=C\c1ccco1)C(=O)NCc1ccc(Cl)c(Cl)c1` , state its measured log10 GI50.
result: 1.30

query: Give reported log10 GI50 value for `N#C/C(=C\c1ccc(Cl)cc1)C(=O)c1ccc[nH]1`
result: 1.43

query: Name the recorded log10 GI50 of the compound listed here: `N#C/C(=C\c1ccccc1)C(=O)NCc1ccc(Cl)c(Cl)c1`
result: 1.46

query: Complete the entry with log10 GI50 for `COc1ccc(/C=C(\C#N)C(=O)NCc2ccc(Cl)c(Cl)c2)cc1`
result: 1.65

query: Indicate the recorded log10 GI50 value for this compound: `COc1ccc(CNC(=O)/C(C#N)=C/c2ccoc2)cc1`
result: 0.85

query: Identify measured log10 GI50 associated with `N#C/C(=C\c1c(F)c(F)c(F)c(F)c1F)C(=O)c1ccc[nH]1`
result: 1.36

query: Give me measured log10 GI50, please, for this compound: `N#C/C(=C\c1ccc2ccccc2c1)C(=O)NCc1ccc(Cl)c(Cl)c1`
result: 1.46
